assay: qHTS assay to identify small molecule agonists of the endoplasmic reticulum stress response signaling pathway (AID 1159516); conditions: ESRE-bla HeLa, ER stress beta-lactamase reporter, 5 h; series mostly up to 61 µM; further: potency means the concentration at half of the fitted maximal effect
Records with an inconclusive call do not appear. Active and inactive are the calls of the source. The call rests on the fitted dose curve; in most records, active means well fitted activation curve with a large enough effect in the signal ratio in the repeat runs (not every such curve was filed as active); inconclusive means weak or mixed curves, or effect the other way; inactive means flat fitted curve, though single readings scatter; the % refers to the signal ratio.
readout-type: Potency

Check out these entries, answers already filled in.
CCCCCCCCCBr = inactive
CC(=O)[O-].[Tl+] = inactive
Cc1cc(SCc2sc(-c3ccc(C(F)(F)F)c(F)c3)nc2C)ccc1OCC(=O)O = inactive
CN(C)CCc1c[nH]c2cccc(O)c12 = inactive
CC(=O)[O-].CC(=O)[O-].O.O.[Cd+2] = 0.216 µM (active)
FC(F)(F)c1cccc(C2=CCN(CCc3ccc4ccccc4c3)CC2)c1 = inactive

Alright, here's another compound for you.
[ask] // returns reported Potency for input "CC(c1ccc(O)cc1)c1ccc(O)cc1"
[reply] inactive

---

test: A CellTox Green Cytotoxicity Assay to monitor cytotoxicity in HEK293 cells - 16 hour (AID 1224888); conditions: CellTox Green fluorescence; series mostly up to 76.8 µM; further: nearly all actives have a fitted effect of over 35% in size
Inconclusive results are not listed. Calls of active or inactive are those of the source. Calls follow the shape of the dose curve; as a rule, active = well fitted activation curve with a large enough effect in the repeat runs; inconclusive = weak or mixed curves; inactive = flat fitted curve, though single readings scatter.
Select the correct class. Options are active, inactive and nothing else.

CC(C)[C@H](C(=O)O[C@H](C#N)c1cccc(Oc2ccccc2)c1)c1ccc(Cl)cc1 = inactive

[ask] Which outcome did this test record for the compound COc1cccc2c1C(=O)c1c(O)c3c(c(O)c1C2=O)C[C@@](O)(C(=O)CO)CC3OC1CC(N2CCOC(OC)C2)C(O)C(C)O1 (stereo not given in full) ?
[reply] inactive

[ask] Which outcome did this test record for the compound "Clc1ccc(Oc2ccccc2)cc1" ?
[reply] inactive

[ask] Which outcome did this test record for the compound "CC(=O)O[C@H]1CC[C@@]2(C)C(=CC[C@@H]3[C@@H]2CC[C@]2(C)C(=O)CC[C@@H]32)C1" ?
[reply] inactive

[ask] Which outcome did this test record for the compound "CC(=O)[O-].CC(=O)[O-].[Hg+2]" ?
[reply] active

---

biological target: Luciferin 4-monooxygenase (Photinus pyralis); assay: qHTS assay to identify small molecule inhibitors of firefly luciferase (AID 1224835); further: nearly all actives have a fitted effect of over 25% in size; details: purified P. pyralis luciferase, luminescence inhibition; series mostly up to 115 µM
Results filed as inconclusive are left out. Activity calls are given as the source filed them. The call rests on the fitted dose curve; in most records, active means well fitted inhibition curve with a large enough effect in the repeat runs; inconclusive means weak or mixed curves; inactive means flat fitted curve, though single readings scatter.
Select the correct class. Options are active, inactive and nothing else.

CN(C)S(=O)(=O)N(SC(F)(Cl)Cl)c1ccccc1 = active
COc1ccc(OC)c(CC(C)N)c1 (centres undefined) = inactive
O=C(O)C1C2CCC(O2)C1C(=O)O (centres undefined) = inactive

Consider now this further compound.
[ask] Which outcome did this test record for the compound ClC1=C(Cl)C2(Cl)C3C(Cl)C(Cl)CC3C1(Cl)C2(Cl)Cl (centres undefined) ?
[reply] inactive

---

assay: qHTS assay to identify small molecule antagonists of the progesterone receptor (PR) signaling pathway - cell viability counter screen (AID 1346798); conditions: PR-UAS-bla HEK293T viability, CellTiter-Glo luminescence, 16 h; series mostly up to 92.4 µM; further: nearly all actives have a fitted effect of over 50% in size
Inconclusive results are not listed. Activity calls are given as the source filed them. Calls follow the shape of the dose curve; as a rule, active = well fitted cell-killing curve with a large enough effect in the repeat runs; inconclusive = weak or mixed curves, or effect the other way; inactive = no such curve, though single readings can be large or run the other way.
Select the correct class. Options are active, inactive and nothing else.

Solved entries:
C[As+](C)(C)CC(=O)[O-] = inactive
CC(C)CC(C)N (centres undefined) = inactive
FC(F)(F)c1cccc(C2=CCN(CCc3ccc4ccccc4c3)CC2)c1 = inactive
ClC(Cl)=C(Cl)Cl = inactive
COP(N)(=S)OC = inactive
Clc1ccc(C(Cl)(Cl)Cl)c(Cl)c1 = active

[ask] Which outcome did this test record for the molecule "CSCCCN=C=S" ?
[reply] inactive

[ask] Which outcome did this test record for the molecule "C=CC(=O)N(C)C" ?
[reply] inactive
